# TARGET: DNA-PK phosphorylation at Serine 2056 (Homo sapiens, UniProt P78527)
# Construct: host or cells: FaDu
# PROCEDURE SUMMARY: Cellular Assay for Inhibition of DNA-PK Phosphorylation at Serine 2056 (FaDu cells, neocarzinostatin, sandwich ELISA)
# Type: cell-based
# TEST SETTINGS: Table 1
pIC50: −log10 of the molar value.
OBSERVATION TYPE: pIC50

Q) What does the record list as pIC50 for c1cnc2cc(N3CCOCC3)nc(O[C@H]3CC[C@@H](Nc4cncnc4)CC3)c2c1 [Compound 28] ?
A) > 7.00

Q) What does the record list as pIC50 for Oc1cnc(N[C@H]2CC[C@@H](Oc3nc(N4CCOCC4)cc4ncccc34)CC2)nc1 [Compound 45] ?
A) > 7.00

Q) What does the record list as pIC50 for O=C(N[C@H]1CC[C@@H](Oc2nc(N3CCOCC3)cc3ncccc23)CC1)C1CC1 [Compound 108] ?
A) 6.00 to 7.00

Q) What does the record list as pIC50 for CS(=O)(=O)Nc1cnc2cc(N3CCOCC3)nc(O[C@H]3CC[C@@H](NC(=O)c4ncco4)CC3)c2c1 [Compound 205] ?
A) > 7.00

Numbers sourced from patent US20240246960A1.
